Task for the reader: assign each of the following compounds its reported pIC50.
test system: MDA-MB-468 spheroids with HUVEC/MSC, viability; test: Anticancer human tumor MDA-MB-468 cell line growth inhibition [PI3K]; settings: curve of first compound; second compound 0.1 µM;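 further: spheroids exposed to agents for seven days before readout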
Numbers only, as −log10 of the molar value.

INSERT INTO assay_data (compound, system_under_test, reported_result) VALUES
  ('Cn1nccc1Nc1nccc(-c2ccn(C(CO)c3ccc(Cl)c(F)c3)c(=O)c2)n1 (stereo not given) + COc1c(OCCCN2CCOCC2)ccc2c3n(c(=NC(=O)c4cnc(N)nc4)nc12)CCN3', 'MDA-MB-468 spheroids with HUVEC/MSC, viability', 5.36);

The record that follows has no pIC50 shown yet.
# input For the compound Cn1cnc2c(F)c(Nc3ccc(Br)cc3Cl)c(C(=O)NOCCO)cc21 + COc1c(OCCCN2CCOCC2)ccc2c3n(c(=NC(=O)c4cnc(N)nc4)nc12)CCN3 , give its reported pIC50.
# output 6.94

----------
tested on: MDA-MB-468 spheroids with HUVEC/MSC, viability; assay: Anticancer human tumor MDA-MB-468 cell line growth inhibition [PI3K]; conditions: second compound 3.16 µM; first compound 1 µM; stronger effect = lower value;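 further: spheroids exposed to agents for seven days before readout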;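 on viability, T/C: 100% = DMSO vehicle control viability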
Task for the reader: assign each of the following molecules its reported viability, T/C.
One number for each entry, in %.

The following molecules have reported results that may help.
INSERT INTO measurements (molecule, reported_result) VALUES
  ('C[C@@H](NC(=O)c1ncnc(N)c1Cl)c1ncc(C(=O)Nc2cc(C(F)(F)F)c(Cl)cn2)s1 + CC(Nc1ncnc2nc[nH]c12)c1cc2cccc(Cl)c2c(=O)n1-c1ccccc1', 55.7),
  ('C=CC(=O)N1CCN(c2nc(=O)n(-c3c(C)ccnc3C(C)C)c3nc(-c4c(O)cccc4F)c(F)cc23)C(C)C1 (stereo unspecified) + CC(Nc1ncnc2nc[nH]c12)c1cc2cccc(Cl)c2c(=O)n1-c1ccccc1', 68.5),
  ('CNC(=O)c1ccc(N2C(=S)N(c3ccc(C#N)c(C(F)(F)F)c3)C(=O)C2(C)C)cc1F + CC(Nc1ncnc2nc[nH]c12)c1cc2cccc(Cl)c2c(=O)n1-c1ccccc1', 57.1),
  ('CCCS(=O)(=O)Nc1ccc(F)c(C(=O)c2c[nH]c3ncc(-c4ccc(Cl)cc4)cc23)c1F + CC(Nc1ncnc2nc[nH]c12)c1cc2cccc(Cl)c2c(=O)n1-c1ccccc1', 57.7),
  ('CC1(C)CCC(Nc2ncc(C(F)(F)F)c(-c3c[nH]c4c(P(C)(C)=O)c(C#N)ccc34)n2)CN1 (stereo unspecified) + Cc1nc(NC(=O)N2CCCC2C(N)=O)sc1-c1ccnc(C(C)(C)C(F)(F)F)c1', 9.67);

Hey, can you go through the list below and give me viability, T/C for every item?
1. C[C@@H](NC(=O)c1ncnc(N)c1Cl)c1ncc(C(=O)Nc2cc(C(F)(F)F)c(Cl)cn2)s1 + Cc1nc(NC(=O)N2CCCC2C(N)=O)sc1-c1ccnc(C(C)(C)C(F)(F)F)c1
2. Cn1ncc(Cl)c1-c1cc(C(=O)NC(CN)Cc2cccc(F)c2)sc1Cl (stereo unspecified) + Cc1nc(NC(=O)N2CCCC2C(N)=O)sc1-c1ccnc(C(C)(C)C(F)(F)F)c1
3. CNC(=O)c1ccc(N2C(=S)N(c3ccc(C#N)c(C(F)(F)F)c3)C(=O)C2(C)C)cc1F + Cc1nc(NC(=O)N2CCCC2C(N)=O)sc1-c1ccnc(C(C)(C)C(F)(F)F)c1
4. Cn1nccc1Nc1nccc(-c2ccn(C(CO)c3ccc(Cl)c(F)c3)c(=O)c2)n1 (stereo unspecified) + CC(Nc1ncnc2nc[nH]c12)c1cc2cccc(Cl)c2c(=O)n1-c1ccccc1
5. Cn1nccc1Nc1nccc(-c2ccn(C(CO)c3ccc(Cl)c(F)c3)c(=O)c2)n1 (stereo unspecified) + Cc1nc(NC(=O)N2CCCC2C(N)=O)sc1-c1ccnc(C(C)(C)C(F)(F)F)c1

# output
[61.4, 20.8, 74.8, 63.2, 59.7]

# input For the molecule C=CC(=O)N1CCN(c2nc(=O)n(-c3c(C)ccnc3C(C)C)c3nc(-c4c(O)cccc4F)c(F)cc23)C(C)C1 (stereo unspecified) + Cc1nc(NC(=O)N2CCCC2C(N)=O)sc1-c1ccnc(C(C)(C)C(F)(F)F)c1 , give its reported viability, T/C.
# output 60.8

----------
tested on: MDA-MB-468 spheroids with HUVEC/MSC, viability; test: Anticancer human tumor MDA-MB-468 cell line growth inhibition [PI3K]; settings: second compound 0.316 µM; first compound 10 µM; stronger effect = lower value;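 further: spheroids exposed to agents for seven days before readout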;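 on viability, T/C: 100% = DMSO vehicle control viability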
Task for the reader: assign each of the following molecules its reported viability, T/C.
Numbers only, in %.

The following molecules have reported results that may help.
INSERT INTO results (molecule, reported_result) VALUES
  ('C#Cc1c(F)ccc2cc(O)cc(-c3ncc4c(N5CC6CCC(C5)N6)nc(OCC56CCCN5CC(F)C6)nc4c3F)c12 (stereo not given) + COc1c(OCCCN2CCOCC2)ccc2c3n(c(=NC(=O)c4cnc(N)nc4)nc12)CCN3', 6.75),
  ('CNC(=O)c1ccc(N2C(=S)N(c3ccc(C#N)c(C(F)(F)F)c3)C(=O)C2(C)C)cc1F + Cc1nc(NC(=O)N2CCCC2C(N)=O)sc1-c1ccnc(C(C)(C)C(F)(F)F)c1', 59),
  ('Cn1ncc(Cl)c1-c1cc(C(=O)NC(CN)Cc2cccc(F)c2)sc1Cl (stereo not given) + Cc1nc(NC(=O)N2CCCC2C(N)=O)sc1-c1ccnc(C(C)(C)C(F)(F)F)c1', 3.34);

Hey, can you go through the list below and give me viability, T/C for every item?
1. CC(Cn1ccc(-c2ccc(C#N)c(Cl)c2)n1)NC(=O)c1cc(C(C)O)[nH]n1 (stereo not given) + CC(Nc1ncnc2nc[nH]c12)c1cc2cccc(Cl)c2c(=O)n1-c1ccccc1
2. C#Cc1c(F)ccc2cc(O)cc(-c3ncc4c(N5CC6CCC(C5)N6)nc(OCC56CCCN5CC(F)C6)nc4c3F)c12 (stereo not given) + CC(Nc1ncnc2nc[nH]c12)c1cc2cccc(Cl)c2c(=O)n1-c1ccccc1

# output
1. 66.3
2. 54.5

----------
Task for the reader: assign each of the following molecules its reported viability, T/C.
system: MDA-MB-468 spheroids with HUVEC/MSC, viability; test: Anticancer human tumor MDA-MB-468 cell line growth inhibition [PI3K]; settings: second compound 3.16 µM; first compound 1 µM; stronger effect = lower value;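 further: spheroids exposed to agents for seven days before readout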;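 on viability, T/C: 100% = DMSO vehicle control viability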
Numbers only, in %.

The following molecules have reported results that may help.
INSERT INTO results (molecule, measurement_name, reported_result) VALUES
  ('CC(Cn1ccc(-c2ccc(C#N)c(Cl)c2)n1)NC(=O)c1cc(C(C)O)[nH]n1 (stereo not drawn) + Cc1nc(NC(=O)N2CCCC2C(N)=O)sc1-c1ccnc(C(C)(C)C(F)(F)F)c1', 'viability, T/C', 61.3),
  ('CC1(C)CCC(Nc2ncc(C(F)(F)F)c(-c3c[nH]c4c(P(C)(C)=O)c(C#N)ccc34)n2)CN1 (stereo not drawn) + CC(Nc1ncnc2nc[nH]c12)c1cc2cccc(Cl)c2c(=O)n1-c1ccccc1', 'viability, T/C', 9.71);

The record that follows has no viability, T/C shown yet.
# input For the molecule CCN1CCN(Cc2ccc(Nc3ncc(F)c(-c4cc(F)c5nc(C)n(C(C)C)c5c4)n3)nc2)CC1 + Cc1nc(NC(=O)N2CCCC2C(N)=O)sc1-c1ccnc(C(C)(C)C(F)(F)F)c1 , give its reported viability, T/C.
# output 41.6

----------
system: MDA-MB-468 spheroids with HUVEC/MSC, viability; experiment: Anticancer human tumor MDA-MB-468 cell line growth inhibition [PI3K]; details: curve of first compound; second compound 0.1 µM;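 further: spheroids exposed to agents for seven days before readout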
Task for the reader: assign each of the following compounds its reported log10(IC50).
Hi team, quick reminder: these entries are log10 of IC50 (µM).

INSERT INTO results (compound, reported_result) VALUES
  ('CCCS(=O)(=O)Nc1ccc(F)c(C(=O)c2c[nH]c3ncc(-c4ccc(Cl)cc4)cc23)c1F + Cc1nc(NC(=O)N2CCCC2C(N)=O)sc1-c1ccnc(C(C)(C)C(F)(F)F)c1', 0.60),
  ('CC(C)NCC(C(=O)N1CCN(c2ncnc3c2C(C)CC3O)CC1)c1ccc(Cl)cc1 (configuration not stated) + CC(Nc1ccc2c(c1)OCCn1cc(N3C(=O)OCC3C(F)F)nc1-2)C(N)=O', -0.24),
  ('CC1(C)CCC(CN2CCN(c3ccc(C(=O)NS(=O)(=O)c4ccc(NCC5CCOCC5)c([N+](=O)[O-])c4)c(Oc4cnc5[nH]ccc5c4)c3)CC2)=C(c2ccc(Cl)cc2)C1 + Cc1nc(NC(=O)N2CCCC2C(N)=O)sc1-c1ccnc(C(C)(C)C(F)(F)F)c1', 0.66),
  ('Cn1cnc2c(F)c(Nc3ccc(Br)cc3Cl)c(C(=O)NOCCO)cc21 + Cc1nc(NC(=O)N2CCCC2C(N)=O)sc1-c1ccnc(C(C)(C)C(F)(F)F)c1', 0.26),
  ('CC(C)n1nc(-c2ccc3oc(N)nc3c2)c2c(N)ncnc21 + COc1c(OCCCN2CCOCC2)ccc2c3n(c(=NC(=O)c4cnc(N)nc4)nc12)CCN3', -1.98);

Hey, can you go through the list below and give me log10(IC50) for every item?
1. CCCS(=O)(=O)Nc1ccc(F)c(C(=O)c2c[nH]c3ncc(-c4ccc(Cl)cc4)cc23)c1F + CC(Nc1ccc2c(c1)OCCn1cc(N3C(=O)OCC3C(F)F)nc1-2)C(N)=O
2. Cn1ncc(Cl)c1-c1cc(C(=O)NC(CN)Cc2cccc(F)c2)sc1Cl (configuration not stated) + Cc1nc(NC(=O)N2CCCC2C(N)=O)sc1-c1ccnc(C(C)(C)C(F)(F)F)c1

# output
[0.66, -0.57]
